Where these numbers come from: PubChem BioAssay (NCI)

tested on: HT29 colon; experiment: NCI-60 one-dose screen, 48 h (100 = growth as untreated, 0 = no growth, -100 = all killed); conditions: 10 µM unless noted
The panel holds about 83,000 compounds, 20% with a hit somewhere; the sample as a whole holds those more often.
Mark NO for growth values under 30%, and YES for everything at or above.

Inquiry: API: above_or_equal(metric=growth, cutoff=30%) for item `COC(=O)/C(CCC=C(C)C)=C1\[C@@H](OC(C)=O)C[C@@]2(C)[C@H]1C[C@@H](O)[C@H]1[C@@]3(C)CC[C@H](NCCO)[C@@H](C)[C@@H]3CC[C@@]12C`
Reply text: YES

Inquiry: Next compound: COc1cc(C2C3=C(COC3=O)N(CCO)c3cc4c(cc32)OCCO4)cc(OC)c1O (centres undefined)
Reply text: NO

Inquiry: Next compound: `O=c1oc2ccc(Br)cc2c(=O)n1-c1ccc(F)cc1F`
Reply text: YES

Inquiry: Next compound: `Cc1ccc(F)cc1NC(=O)c1cc(Cl)ccc1Nc1ccccc1`
Reply text: NO

Inquiry: Next compound: `COc1cc2nc(-c3cnc(N(C)C)nc3)nc(NC3CCN(Cc4ccccc4)CC3)c2cc1OC`
Reply text: NO

Inquiry: Next compound: `O=C(Nc1ccc(N2CCNCC2)cc1)c1[nH]ncc1Nc1ncnc2sc3c(c12)CCC3`
Reply text: NO

Inquiry: Next compound: `Nc1no[n+]([O-])c1-c1nnc2c(n1)-c1ccccc1C2=O`
Reply text: YES

Inquiry: Next compound: CC(C)CCNCC(O)Cn1c2ccccc2c2ccccc21 (centres undefined)
Reply text: NO

Inquiry: Next compound: CN1C(=O)N(C)C2C1NN=c1s/c(=C\c3ccc([N+](=O)[O-])cc3)c(=O)n12 (centres undefined)
Reply text: NO
